# TEST SYSTEM: T1, Human CD19-his protein (human, UniProt P15391 20-291)
# T1 construct: bought protein; also called human CD19 protein; recombinant human CD19-His; not shown: His tag
# T1 sequence (looked up): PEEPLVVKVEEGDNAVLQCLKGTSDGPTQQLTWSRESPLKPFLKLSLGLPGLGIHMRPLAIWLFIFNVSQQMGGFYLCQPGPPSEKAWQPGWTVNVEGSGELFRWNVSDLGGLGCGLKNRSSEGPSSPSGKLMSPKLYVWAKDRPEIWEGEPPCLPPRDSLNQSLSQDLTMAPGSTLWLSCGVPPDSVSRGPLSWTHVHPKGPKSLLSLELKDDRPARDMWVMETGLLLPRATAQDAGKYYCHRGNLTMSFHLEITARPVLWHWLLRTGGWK
# MEASUREMENT DESCRIPTION: ELISA, antibody at 0.01 nM
The following binders are listed with their measured OD450 values.
Quick one: just the number, no unit, thanks!

>  <BINDER>
F4.4.6 (antibody, human IgG1, V domains shown, human-murine chimeric antibody, human IgG1) VH: QVQLQQSGAELARPGASVKLSCKASGYTFTSYWMQWVKQRPGQGLEWIGAIYPGDGDSRYTQKFKGKATLTADKSSSTAYMQLSSLASEDSAVYYCARSTTTVLGNNFEYWGQGTTLTVSS VL: QIVLTQSPAIMSALPGEKVTMTCSASSSVSSMHWYQQKSGTSPKRWIYDTSKLASGVPARFSGSGSGTSYSLTISSMEAEDAATYYCQQWSSNPWTFGGGTKLEIK

>  <READING>
0.1

$$$$

Param item = F6.12.12 (antibody, human IgG1, V domains shown, human-murine chimeric antibody, human IgG1) VH: DVQLQESGPGLVKPSQSLSLTCSVTGYSITSGYYWIWIRQFPGNKLEWMGYISYDASNKYKPSLKNRISITRDTSKNQFFLKLNSVTAEDTATYFCAREDLRGYFDVWGTGTSVTVSS VL: DIVLTQSPASLAVSLGRRATISCRASQSVSTSGFSYMHWYQQKPGQPPNLLIKYASILQSGVPARFSGSGSGTDFILNIHPVEDVDTATYYCQHSWGIPFTFGSGTKLEIK ; retrieve measured OD450. 0.1

Recorded OD450 for F4.37.6 (antibody, human IgG1, V domains shown, human-murine chimeric antibody, human IgG1) VH: QVQLQQSGAELARPGASVKLSCKASGYTFTSFWMQWLKQRPGQGLEWIGTIYPGDGDTRYTQKFKGKATLTADKSSNTAYMQLSSLASEDSAVYYCARGALSNYGGFAYWGQGTLVTVSA VL: NIVLTQSPASLAVSLGQRATISCRASESVDSYGHSFMHWYQQKPGQPPKLLIYLASNLESGVPARFSGSGSRTDFTLTIDPVEADDAATYYCQQNNEDPWTFGGGTKLEIK , please? 0.2
